I'd appreciate it if you could supply pEC50 values for the items below.
Biological target: human FPR1 (Homo sapiens (Human), UniProt P21462)
Sequence (P21462 whole entry): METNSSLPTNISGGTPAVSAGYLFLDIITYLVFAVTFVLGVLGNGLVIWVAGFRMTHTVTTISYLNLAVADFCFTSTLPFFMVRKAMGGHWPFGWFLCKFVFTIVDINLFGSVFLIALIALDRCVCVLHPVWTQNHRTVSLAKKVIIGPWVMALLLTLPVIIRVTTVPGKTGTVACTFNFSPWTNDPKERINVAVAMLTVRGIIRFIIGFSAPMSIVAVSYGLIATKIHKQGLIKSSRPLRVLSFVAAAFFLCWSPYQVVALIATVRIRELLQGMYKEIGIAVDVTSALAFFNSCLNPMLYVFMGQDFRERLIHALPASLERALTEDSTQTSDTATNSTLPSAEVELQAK
Assay: FPR1 cyclic adenosine monophosphate (cAMP) assay
Type: cell-based
Conditions: CHO cells overexpressing human FPR1; forskolin 10 μM, IBMX 200 μM; inhibition of cAMP production, HTRF; read-out: hFPR1 cAMP EC50
Numbers only, as −log10 of the molar value.

# count of solved cases: 2
molecule	pEC50
CP(C)(=O)c1ccccc1-c1ccc(N2CC(CO)[C@@H](NC(=O)Nc3ccc(Cl)cc3F)C2=O)c(F)c1F (stereo partly drawn) [Example 127]	6.04
O=C(Nc1ccc(Cl)cc1)N[C@@H]1CCN(c2ccc(-c3ccccc3CO)c(F)c2F)C1=O [Example 3]	6.66

Could I get pEC50 for every one of these entries?
1. CC1C[C@@H](NC(=O)Nc2ccc(C(F)(F)F)cc2F)C(=O)N1c1ccc(-c2cccnc2P(C)(C)=O)c(F)c1F (stereo partly drawn) [Example 128]
2. O=C(Nc1ccc(C(F)(F)F)cc1F)N[C@@H]1CCN(c2ccc(-c3cccc4c3S(=O)(=O)NC4)c(F)c2F)C1=O [Example 97]
3. CS(=O)(=O)Nc1ccccc1-c1ccc(N2CC[C@@H](NC(=O)Nc3ncc(Cl)cc3F)C2=O)c(F)c1F [Example 13]
4. O=C(Nc1ccc(Cl)cc1F)N[C@@H]1C[C@@H](CO)N(c2ccc(-c3ccccc3F)c(F)c2F)C1=O [Example 82]
5. CS(=O)(=O)Nc1ncccc1-c1ccc(N2CC[C@@H](NC(=O)Nc3ccc(Cl)cc3F)C2=O)c(F)c1F [Example 23]
6. CP(C)(=O)c1ccccc1-c1ccc(N2C(=O)[C@H](NC(=O)Nc3ccc(Cl)cc3F)C[C@H]2CO)c(F)c1F [Example 112]
7. CC(C)c1cc(-c2ccccc2P(C)(C)=O)ccc1N1CC[C@@H](NC(=O)Nc2ccc(Cl)cc2F)C1=O [Example 45]

output:
1. 7.62
2. 6.96
3. 5.60
4. 6.11
5. 6.15
6. 6.41
7. 6.85

###

Target: human FPR1 (Homo sapiens (Human), UniProt P21462)
Test: FPR1 cyclic adenosine monophosphate (cAMP) assay
Settings: CHO cells overexpressing human FPR1; forskolin 10 μM, IBMX 200 μM; inhibition of cAMP production, HTRF; read-out: hFPR1 cAMP EC50
Friendly reminder: EC50 below 600 nM is Satisfied, at or above is Not satisfied.

compound	discrete.label
CP(C)(=O)c1ccccc1-c1ccc(N2CC(CO)[C@@H](NC(=O)Nc3ccc(Cl)cc3F)C2=O)c(F)c1F (stereo partly drawn) [Example 126]	Not satisfied
CC1(C)CN(c2ccc(-c3cccnc3P(C)(C)=O)c(F)c2F)C(=O)[C@@H]1NC(=O)Nc1ccc(C(F)(F)F)cc1F [Example 110]	Not satisfied

input: Is 600 nM strictly greater than the compound's reported EC50? compound: O=C(Nc1ccc(C(F)(F)F)cc1F)N[C@@H]1CCN(c2ccc(-c3ccccc3CO)c(F)c2F)C1=O [Example 31]
output: Satisfied

input: Below 600 nM on EC50? Entry CC1C[C@@H](NC(=O)Nc2ccc(C(F)(F)F)cc2F)C(=O)N1c1ccc(-c2cccnc2P(C)(C)=O)c(F)c1F (stereo partly drawn) [Example 120]
output: Satisfied

input: Does CP(C)(=O)c1ccccc1-c1ccc(N2CC[C@@H](NC(=O)Nc3ccc(Cl)cc3F)C2=O)c(C(F)F)c1F [Example 107] have EC50 strictly under 600 nM?
output: Satisfied

input: For CP(C)(=O)c1ccccc1-c1ccc(N2C(=O)[C@H](NC(=O)Nc3ccc(C(F)(F)F)cc3F)C[C@H]2CN2CCOCC2)c(F)c1F [Example 131] , is the recorded EC50 below the cut-off of 600 nM?
output: Satisfied

input: Please determine if CP(C)(=O)c1ccccc1-c1ccc(N2CC[C@@H](NC(=O)Nc3ccc(C(F)(F)F)cc3F)C2=O)c(F)c1F [Example 57] is below 600 nM in terms of EC50.
output: Not satisfied

input: Does the reported EC50 of COC[C@@H]1C[C@@H](NC(=O)Nc2ccc(C(F)(F)F)cc2F)C(=O)N1c1ccc(-c2ccccc2P(C)(C)=O)c(F)c1F [Example 90] stay below 600 nM?
output: Not satisfied

input: Given CP(C)(=O)c1ncncc1-c1ccc(N2CC[C@@H](NC(=O)Nc3ccc(C(F)(F)F)cc3F)C2=O)c(F)c1F [Example 93] , is recorded EC50 strictly lower than 600 nM?
output: Not satisfied
